- experimental_target: UniProtKB P00533
- Sequence (P00533 25-1210): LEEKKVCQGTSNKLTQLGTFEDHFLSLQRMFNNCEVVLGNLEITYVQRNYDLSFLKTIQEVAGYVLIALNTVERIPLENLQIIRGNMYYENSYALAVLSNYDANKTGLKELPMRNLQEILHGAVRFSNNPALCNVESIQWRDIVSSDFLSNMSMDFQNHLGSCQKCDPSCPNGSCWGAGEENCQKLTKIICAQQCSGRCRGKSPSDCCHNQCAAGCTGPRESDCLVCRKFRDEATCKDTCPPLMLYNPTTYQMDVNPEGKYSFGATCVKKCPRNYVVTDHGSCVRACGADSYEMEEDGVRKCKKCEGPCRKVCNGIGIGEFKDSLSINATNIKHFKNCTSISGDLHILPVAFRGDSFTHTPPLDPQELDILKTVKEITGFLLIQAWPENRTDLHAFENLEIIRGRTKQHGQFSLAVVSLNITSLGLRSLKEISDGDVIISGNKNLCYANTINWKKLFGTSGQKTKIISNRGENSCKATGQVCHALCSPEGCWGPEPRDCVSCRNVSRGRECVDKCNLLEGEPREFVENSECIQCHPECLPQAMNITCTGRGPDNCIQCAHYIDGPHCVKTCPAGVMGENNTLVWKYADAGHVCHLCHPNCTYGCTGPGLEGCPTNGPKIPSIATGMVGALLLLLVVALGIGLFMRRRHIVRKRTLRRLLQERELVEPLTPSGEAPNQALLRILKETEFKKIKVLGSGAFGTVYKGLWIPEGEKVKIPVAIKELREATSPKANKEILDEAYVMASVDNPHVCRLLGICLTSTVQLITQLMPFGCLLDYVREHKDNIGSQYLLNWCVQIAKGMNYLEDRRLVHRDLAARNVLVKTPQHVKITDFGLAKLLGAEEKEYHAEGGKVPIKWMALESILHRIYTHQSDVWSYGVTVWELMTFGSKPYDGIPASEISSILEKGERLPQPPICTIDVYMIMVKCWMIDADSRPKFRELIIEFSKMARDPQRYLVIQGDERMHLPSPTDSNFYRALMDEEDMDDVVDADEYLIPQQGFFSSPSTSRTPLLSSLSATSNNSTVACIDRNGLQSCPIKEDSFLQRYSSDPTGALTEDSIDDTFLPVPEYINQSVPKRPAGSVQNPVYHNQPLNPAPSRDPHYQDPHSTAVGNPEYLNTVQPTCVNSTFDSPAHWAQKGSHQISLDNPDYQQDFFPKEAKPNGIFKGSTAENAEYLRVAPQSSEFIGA
- procedure_summary: Z'-LYTE biochemical assay, ErbB1 kinase inhibition
- setup_conditions: @ 100 nM
test_readout: inhibition at 0.1 µM (%)
Supply the numeric figure in %, leaving out any unit text.

Enquiry: Need inhibition at 0.1 µM of C=CS(=O)(=O)Nc1cccc(Nc2cc(Nc3ccc(OCc4cccc(F)c4)c(Cl)c3)ncn2)c1 , thanks.
Return: 100

Enquiry: Subsequent entry: C=CC(=O)Nc1cccc(Nc2cc(Nc3ccc(F)c(Cl)c3)ncn2)c1
Return: 98

Enquiry: Subsequent entry: C=CC(=O)Nc1cccc(Nc2cc(Nc3ccc(OCc4cccc(F)c4)c(Cl)c3)ncn2)c1
Return: 100

Enquiry: Subsequent entry: C=CS(=O)(=O)Nc1cccc(Nc2cc(Nc3ccc(F)c(Cl)c3)ncn2)c1
Return: 96
